experimental target: autotaxin (ATX) (Homo sapiens)
Construct: concentrated conditioned serum-free medium (CCM) from MDA MB-435 cells as the source of ATX; endogenous in cells; host or cells: MDA-MB-435 cells (serum-free conditioned medium, concentrated ~10 fold)
protocol summary: Autotaxin inactivation analysis: ATX-mediated hydrolysis of FS-3 (fluorescence), concentrated conditioned medium from MDA MB-435 cells as ATX source
Type: biochemical
stated conditions: 3 uM, time 6 hours; FS-3 substrate
measurement kind: Fluorescence (% Response) (%)
// units = %; emit number, no label

Recorded Fluorescence (% Response), per entry:
> print(dat)
                                 smiles.str  recorded.value
1  CCCCCCCCCCCCCCCCOP(=O)(O)Oc1ccc(C(F)F)cc1            34.4
2      CCCCCCCCCCCCCCOP(=O)(O)Oc1ccc(CF)cc1            32.7
3        CCCCCCCCCCCCOP(=O)(O)Oc1ccc(CF)cc1            40.6

Now consider the entry below.
Sample CCCCCCCCCCCCOP(=O)(O)Oc1ccc(C(F)F)cc1 — what was its Fluorescence (% Response)?
37.0

----------
experimental target: autotaxin (ATX) (Homo sapiens, UniProt Q13822)
Construct: concentrated conditioned serum-free medium (CCM) from MDA MB-435 cells as the source of ATX; endogenous in cells; host or cells: MDA-MB-435 cells (serum-free conditioned medium, concentrated ~10 fold)
protocol summary: Autotaxin inactivation analysis: ATX-mediated hydrolysis of FS-3 (fluorescence), concentrated conditioned medium from MDA MB-435 cells as ATX source
Type: biochemical
stated conditions: 3 uM, time 6 hours; FS-3 substrate
measurement kind: Fluorescence (% Response) (%)
Write the value in % as a bare number.

> print(dat)
                               smiles.str  recorded.value
1  CCCCCCCCCCCCCCCCOP(=O)(O)Oc1ccc(CF)cc1            21.9
2    CCCCCCCCCCCCCCCCOP(=O)(O)Oc1ccccc1CF             4.7

Request - read-out Fluorescence (% Response) | tested on autotaxin (ATX) (Homo sapiens, UniProt Q13822) | compound CCCCCCCCCCCCCCOP(=O)(O)Oc1ccc(C(F)F)cc1
31.2

What about CCCCCCCCCCCCCCCCCCOP(=O)(O)Oc1ccc(CF)cc1 ?
25.0

----------
experimental target: autotaxin (ATX) (Homo sapiens, UniProt Q13822)
Construct: concentrated conditioned serum-free medium (CCM) from MDA MB-435 cells as the source of ATX; endogenous in cells; host or cells: MDA-MB-435 cells (serum-free conditioned medium, concentrated ~10 fold)
protocol summary: Autotaxin inactivation analysis: ATX-mediated hydrolysis of FS-3 (fluorescence), concentrated conditioned medium from MDA MB-435 cells as ATX source
Assay type: biochemical
stated conditions: 3 uM, time 1 hour; FS-3 substrate
# Fluorescence (% Response) per record follows
All answers are understood in %, so give the number only.

Examples with their reported Fluorescence (% Response) follow.
> print(dat)
                                smiles.str           measurement.kind  recorded.value
1       CCCCCCCCCCCCOP(=O)(O)Oc1ccc(CF)cc1  Fluorescence (% Response)            70.0
2     CCCCCCCCCCCCCCCCOP(=O)(O)Oc1ccccc1CF  Fluorescence (% Response)            29.3
3  CCCCCCCCCCCCCCOP(=O)(O)Oc1ccc(C(F)F)cc1  Fluorescence (% Response)            57.1

Turning now to a further compound:
Reported Fluorescence (% Response) for CCCCCCCCCCCCCCCCCCOP(=O)(O)Oc1ccc(CF)cc1 : what is it?
47.9

----------
experimental target: autotaxin (ATX) (Homo sapiens, UniProt Q13822)
Construct: concentrated conditioned serum-free medium (CCM) from MDA MB-435 cells as the source of ATX; endogenous in cells; host or cells: MDA-MB-435 cells (serum-free conditioned medium, concentrated ~10 fold)
protocol summary: Autotaxin inactivation analysis: ATX-mediated hydrolysis of FS-3 (fluorescence), concentrated conditioned medium from MDA MB-435 cells as ATX source
Type: biochemical
stated conditions: 30 uM, time 6 hours; FS-3 substrate
measurement kind: Fluorescence (% Response) (%)
// return numeric value only (unit: %, not printed)

Worked examples, 2 compounds total:
> print(dat)
                                   compound  recorded.value
1  CCCCCCCCCCCCOP(=O)(O)Oc1ccc(C(F)F)cc1 [Example 7, (12:0)-p-difluorophosphodiester]            24.9
2  CCCCCCCCCCCCCCCCOP(=O)(O)Oc1ccccc1CF [Example 10, (16:0)-o-monofluorophosphodiester]           −17.0

The record that follows has no Fluorescence (% Response) shown yet.
Record CCCCCCCCCCCCOP(=O)(O)Oc1ccc(CF)cc1 [Example 8, (12:0)-p-monofluorophosphodiester] : what is its Fluorescence (% Response) with autotaxin (ATX) (Homo sapiens, UniProt Q13822)?
37.7

----------
Item-by-item account of Fluorescence (% Response)
experimental target: autotaxin (ATX) (Homo sapiens)
Construct: concentrated conditioned serum-free medium (CCM) from MDA MB-435 cells as the source of ATX; endogenous in cells; host or cells: MDA-MB-435 cells (serum-free conditioned medium, concentrated ~10 fold)
protocol summary: Autotaxin inactivation analysis: ATX-mediated hydrolysis of FS-3 (fluorescence), concentrated conditioned medium from MDA MB-435 cells as ATX source
Format: biochemical
stated conditions: 3 uM, time 1 hour; FS-3 substrate
State the answer as a number, implicitly in %.

Return reported Fluorescence (% Response); argument: CCCCCCCCCCCCCCCCOP(=O)(O)Oc1ccc(C(F)F)cc1 [Example 3, (16:0)-p-difluorophosphodiester]
60.4

Record: CCCCCCCCCCCCCCOP(=O)(O)Oc1ccc(CF)cc1 [Example 6, (14:0)-p-monofluorophosphodiester]
61.9

What about CCCCCCCCCCCCCCCCOP(=O)(O)Oc1ccc(CF)cc1 [Example 4, (16:0)-p-monofluorophosphodiester] ?
50.0

Lookup CCCCCCCCCCCCOP(=O)(O)Oc1ccc(C(F)F)cc1 [Example 7, (12:0)-p-difluorophosphodiester]
64.5

Data credit: patent US8022239B2
